Assignment: determine reported Ki for the given molecules.
- target-desc: Adenosine receptor A1 (Rattus norvegicus)
- Sequence (P25099 whole entry): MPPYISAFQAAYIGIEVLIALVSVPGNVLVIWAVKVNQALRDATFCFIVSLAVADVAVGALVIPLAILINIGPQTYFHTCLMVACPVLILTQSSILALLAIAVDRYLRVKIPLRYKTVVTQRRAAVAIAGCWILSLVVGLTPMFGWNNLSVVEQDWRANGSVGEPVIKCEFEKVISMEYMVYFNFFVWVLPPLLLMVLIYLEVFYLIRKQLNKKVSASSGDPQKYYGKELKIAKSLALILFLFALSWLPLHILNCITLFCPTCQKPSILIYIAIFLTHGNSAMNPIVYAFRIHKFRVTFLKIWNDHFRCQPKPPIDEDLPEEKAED

Reported Ki for CCCN1C(=O)N2C[C@H](CC)N=C2c2[nH]c(C34CCC(O)(CC3)CC4)nc21 : what is it?
> 100 nM

And CCCN1C(=O)N2CCN=C2c2[nH]c(C34CCC(O)(CC3)CC4)nc21 ?
> 100 nM
